# System: 786-0 renal
# experimental.protocol: NCI tumour cell line growth inhibition, 48 h; in the data active = GI50 below about 0.43 µM; inactive = the rest
Hi there, use one of these labels in your reply, thanks! active, inactive

Example entries begin here.
O=c1oc2c(C(F)(F)F)cccc2cc1-c1csc(Nc2ccc(OCCF)cc2)n1 ... active
CC(C)(C)c1ccc(NS(=O)(=O)c2ccc3nc(NC(=O)c4cnccn4)[nH]c3c2)cc1 ... inactive
CN(C)CCCn1c(-c2nonc2N)nc2cnccc21 ... inactive
Cc1ccc([C@]2(C)CC[C@H](C)/C2=C\Br)c(O)c1 ... inactive
CCCCCCCCCCCCCCCC1=NC(C)(C)CN1C(C)C ... inactive
OCCN1CCN(CC/C=C2/c3ccccc3Sc3ccc(Cl)cc32)CC1 ... inactive
CC#Cc1nc(Nc2cc(C)[nH]n2)c2ccccc2n1 ... inactive
O=C(CCc1ccc(O)cc1)N/N=C/c1cc(Br)ccc1O ... inactive

So what was the verdict on C/C(=N\NC(=S)N(C)C)c1ccccn1 in this test?
active

So what was the verdict on C=CC(COC(c1ccccc1)(c1ccccc1)c1ccccc1)N(CC)CC (stereo not drawn) in this test?
inactive

So what was the verdict on CC(=C/c1ccccc1)/C=C1/NC(=S)N(/C=C2\C(=O)Oc3ccccc3C2=O)C1=O in this test?
inactive

So what was the verdict on Cn1cc(C2=C(N3CCOCC3)C(=O)NC2=O)c2ccccc21 in this test?
inactive

So what was the verdict on CC(O)c1cc(C(=O)N[C@@H](C)Cn2ccc(-c3ccc(C#N)c(Cl)c3)n2)n[nH]1 (stereo partly drawn) in this test?
inactive

So what was the verdict on Cc1cc(I)cc(CN(C)CCCN2CCN(C)CC2)c1O in this test?
inactive

So what was the verdict on CCC[CH2][Sn]1([CH2]CCC)[O]CC(C)[O]1 (stereo not drawn) in this test?
inactive

So what was the verdict on N#CC1C=Cc2c(ccc3ccccc23)N1C(=O)c1ccccc1 (stereo not drawn) in this test?
inactive

So what was the verdict on CC(=O)c1cc(O)c2ccccc2c1O in this test?
inactive

So what was the verdict on CCN(CC)C(=S)[S][Bi]([S]C(=S)N(CC)CC)[S]C(=S)N(CC)CC in this test?
active

###

# Tested on: A498 renal
# experimental.protocol: NCI tumour cell line growth inhibition, 48 h
assay.readout: TGI

Check out these entries, answers already filled in.
O=[N+]([O-])C(Cl)=C/C(=C(\Cl)SCc1ccccc1)[N+](=O)[O-] ... 81.4 µM
CC(=O)c1cc(O)c2ccccc2c1O ... > 100 µM
Brc1ccc2c(-c3csc(-c4c[nH]c5ccccc45)n3)c[nH]c2c1 ... 32.2 µM
O=c1ccc2ccc(O)cc2o1 ... > 100 µM
O=C(O)Cn1cc([N+](=O)[O-])c(=O)c2ccccc21 ... > 100 µM

Please tell me: TGI of CCC[C@@H]1C(=O)N=C(N)N1C(=O)OCc1ccccc1 , system A498 renal?
> 100 µM

Please tell me: TGI of CSc1scc2c1/C(=N/NC(N)=O)CCC2 , system A498 renal?
> 100 µM

Please tell me: TGI of COc1ccc(N2NC(c3ccccc3)(c3ccccc3)C(C)C2=O)cc1 (centres undefined) , system A498 renal?
> 100 µM

Please tell me: TGI of CN1CCN(C2=CC(=O)c3c(O)ccc(O)c3C2=O)CC1 , system A498 renal?
2.87 µM

Please tell me: TGI of COc1ccc2c(c1)OC[C@@H]1c3cc(O)c(OCc4ccccc4)cc3O[C@H]21 , system A498 renal?
> 100 µM

// data source = PubChem BioAssay (NCI)
